Species on record: Homo sapiens
procedure-text: Liver toxicity in human assessed as induction of drug-induced liver injury by measuring severity class index
Positions of bridges follow the written chain, without caps; N, C: chain ends. Non-standard residues stand in square brackets, D forms with d. Residues, ends and D or L forms follow the SMILES beside them. hArg = N=C(N)NCCCC[C@H](N)C(=O)O; Mpa = O=C(O)CCS
measure-name: DILI_severity_class

Output measured DILI_severity_class for this item: N=C(N)NCCCC[C@@H]1NC(=O)CCSSC[C@@H](C(N)=O)NC(=O)[C@@H]2CCCN2C(=O)[C@H](Cc2c[nH]c3ccccc23)NC(=O)[C@H](CC(=O)O)NC(=O)CNC1=O [EPTIFIBATIDE] ([Mpa][hArg]GDWPC-NH2; disulfide 1-7)
0

For the compound COc1cccc2c1C(=O)c1c(O)c3c(c(O)c1C2=O)C[C@@](O)(C(=O)CO)C[C@@H]3O[C@H]1C[C@H](N)[C@@H](O)[C@H](C)O1 [EPIRUBICIN] , report DILI_severity_class.
3

Please give measured DILI_severity_class of the following entry: COC(=O)[C@H]1[C@H]2C[C@@H]3c4[nH]c5cc(OC)ccc5c4CCN3C[C@H]2C[C@@H](OC(=O)c2cc(OC)c(OC)c(OC)c2)[C@@H]1OC
0

Give DILI_severity_class for the following compound: CS(=O)(=O)O.C[C@H](N)C(=O)N[C@@H](C)C(=O)N[C@H]1[C@@H]2CN(c3nc4c(cc3F)c(=O)c(C(=O)O)cn4-c3ccc(F)cc3F)C[C@@H]21 [ALATROFLOXACIN MESYLATE]
8

Please report the measured DILI_severity_class for Nc1nc2ccc(OC(F)(F)F)cc2s1
8

Answer with reported DILI_severity_class of Nc1nc(=O)n([C@@H]2CS[C@H](CO)O2)cc1F
2

Note down DILI_severity_class recorded for CC(=O)Oc1ccc(C(=C2CCCCC2)c2ccc(OC(C)=O)cc2)cc1
8

Please indicate DILI_severity_class recorded for Nc1nc(=O)c2c([nH]1)NCC(CNc1ccc(C(=O)N[C@@H](CCC(=O)[O-])C(=O)[O-])cc1)N2C=O.[Ca+2] (some centres undefined)
0

// fetch DILI_severity_class given entry CCCCN1C[C@H](O)[C@@H](O)[C@H](O)[C@H]1CO
0

Report measured DILI_severity_class; entry is O=C(O[C@@H]1C[C@@H]2C[C@H]3C[C@H](C1)N2CC3=O)c1c[nH]c2ccccc12
3

Note DILI_severity_class for the compound shown: CN1CC[C@]23c4c5ccc(O)c4O[C@H]2C(=O)CC[C@H]3[C@H]1C5 [HYDROMORPHONE]
3

Indicate its recorded DILI_severity_class; the compound in question is NCCCC[C@H](N[C@@H](CCc1ccccc1)C(=O)O)C(=O)N1CCC[C@H]1C(=O)O [LISINOPRIL ANHYDROUS]
3

Input CNCCC=C1c2ccccc2CCc2ccccc21 , output reported DILI_severity_class.
8

Indicate its recorded DILI_severity_class; the compound in question is NS(=O)(=O)c1cc2c(cc1C(F)(F)F)NCNS2(=O)=O [HYDROFLUMETHIAZIDE]
2

---

Species: Homo sapiens
procedure-text: Liver toxicity in human assessed as induction of drug-induced liver injury by measuring verified drug-induced liver injury concern status
measure-name: DILI_Concern

Worked examples follow.
# molecule, DILI_Concern
data = [
    ("CN(CCOc1ccc(CC2SC(=O)NC2=O)cc1)c1ccccn1 (configuration not stated)", "Less-Dili-Concern"),
    ("CN[C@H](CC(C)C)C(=O)N[C@H]1C(=O)N[C@@H](CC(N)=O)C(=O)N[C@H]2C(=O)N[C@H]3C(=O)N[C@H](C(=O)N[C@H](C(=O)O)c4cc(O)cc(O)c4-c4cc3ccc4O)[C@H](O)c3ccc(c(Cl)c3)Oc3cc2cc(c3O[C@@H]2O[C@H](CO)[C@@H](O)[C@H](O)[C@H]2O[C@H]2C[C@](C)(N)[C@H](O)[C@H](C)O2)Oc2ccc(cc2Cl)[C@H]1O", "Less-Dili-Concern"),
    ("Nc1cc(-c2ccncc2)c[nH]c1=O", "Ambiguous-Dili-Concern"),
    ("COc1ccccc1OCC(O)COC(N)=O (configuration not stated)", "Ambiguous-Dili-Concern"),
    ("Cn1c(=O)c2[nH]cnc2n(C)c1=O.Cn1c(=O)c2[nH]cnc2n(C)c1=O.NCCN", "No-Dili-Concern"),
]

Here's the next entry for you.
Dear colleague, please send me the reported DILI_Concern for NS(=O)(=O)c1cc(Cl)c(Cl)c(S(N)(=O)=O)c1 [DICHLORPHENAMIDE] when you can.
No-Dili-Concern
